biological target: human CCR2B (Homo sapiens); assay: Calcium mobilization assay (FLIPR, MCP-1 stimulated CHOK1-CCR2B-A5 cells); conditions: antagonist activity vs 20 nM MCP-1, CHOK1-CCR2B-A5 cells
Sequence (P41597 1-360 isoform P41597-2): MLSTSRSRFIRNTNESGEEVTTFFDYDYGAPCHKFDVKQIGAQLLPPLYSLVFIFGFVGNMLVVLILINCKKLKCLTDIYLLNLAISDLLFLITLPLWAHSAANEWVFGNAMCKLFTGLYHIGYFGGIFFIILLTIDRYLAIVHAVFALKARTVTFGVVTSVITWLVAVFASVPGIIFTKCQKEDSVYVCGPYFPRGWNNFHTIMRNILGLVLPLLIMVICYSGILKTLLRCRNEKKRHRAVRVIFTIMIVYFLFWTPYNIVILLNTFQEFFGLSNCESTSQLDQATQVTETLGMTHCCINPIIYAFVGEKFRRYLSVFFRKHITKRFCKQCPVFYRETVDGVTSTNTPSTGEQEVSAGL
In this section, each of the compounds is paired with its reported pIC50.
pIC50 is a log-scale quantity: -log10 of the concentration expressed in molar.

Answered cases to consult:
O=C(c1ccc(-c2cccc(C(F)(F)F)c2)cc1Cl)N1CCC(N2CCCC2)CC1; 6.91
COc1nc(-c2cccc(C(F)(F)F)c2)cc(C)c1C(=O)N1CCC(N2CCCC2)CC1; 7.09

Identify pIC50 associated with the compound Cc1cc(-c2cccc(C(F)(F)F)c2)nc(C)c1C(=O)N1CCC(N2CCC[C@H]2CO)CC1 7.17

Identify pIC50 associated with the compound Cc1nc(-c2cccc(C(F)(F)F)c2)nc(C)c1C(=O)N1CCC(N2CCC[C@H]2CO)CC1 6.51

---

In this section, each of the compounds is paired with its reported IC50.
target: human CCR2B (Homo sapiens); test: Calcium mobilization assay (FLIPR, MCP-1 stimulated CHOK1-CCR2B-A5 cells); settings: antagonist activity vs 20 nM MCP-1, CHOK1-CCR2B-A5 cells
Record the value in nM, omitting the unit from your answer.

Cc1cc(-c2cccc(C(F)(F)F)c2)cc(-c2cncnc2)c1C(=O)N1CCC(N2CCCC2)CC1; 12

Identify IC50 associated with the compound Cc1cc(-c2cccc(C(F)(F)F)c2)ccc1C(=O)N1CCC(N2CCCC2)CC1 150

Identify IC50 associated with the compound Cc1cc(-c2cncc(C(F)(F)F)c2)cc(C)c1C(=O)N1CCC(N2CCC(O)CC2)CC1 270

Identify IC50 associated with the compound Cc1cc(-c2cccc(OC(F)(F)F)c2)cc(C)c1C(=O)N1CCC(N2CCC[C@H]2CO)CC1 39

Identify IC50 associated with the compound Cc1nc(-c2cccc(C(F)(F)F)c2)nc(C)c1C(=O)N1CCC(N2CCCC2)CC1 190

Identify IC50 associated with the compound Cc1cc(-c2cncc(C(F)(F)F)c2)nc(C)c1C(=O)N1CCC(N2CCCC2)CC1 240

Identify IC50 associated with the compound Cc1cc(-c2cccc(OC(F)(F)F)c2)nc(C)c1C(=O)N1CCC(N2CCC[C@H]2CO)CC1 150

Identify IC50 associated with the compound COc1cc(-c2cccc(C(F)(F)F)c2)cc(C)c1C(=O)N1CCC(N2CCCC2)CC1 76

Identify IC50 associated with the compound O=C(c1c(F)cc(-c2cccc(C(F)(F)F)c2)cc1F)N1CCC(N2CCCC2)CC1 89
